# Test system: CEM cells HIV-1 protection, formazan growth assay
# Measurement Protocol: NCI AIDS Antiviral Assay
# Condition Parameters: measured here: growth of uninfected CEM cells
Assay Metric: IC50 (µM)
Give the value in µM but do not write µM after it.

Cc1ccc([N+](=O)[O-])c2c(NCCCN(C)C)c3ccccc3nc12 ... 0.0513
C/C(=N/NC(=S)N1CC2CCC(CC2)C1)c1cnccn1 ... 0.049

Moving on to the next molecule.
Input: Fill in the recorded IC50 for this molecule, with CEM cells HIV-1 protection, formazan growth assay as test system: `CCOC(=O)c1nc(SC)sc1NC(=O)c1ccc(Cl)cc1`
Output: 195
